Where do the numbers come from? From patent US20180037654A1.

- target.system: human CTLA-4 (Y166G and Y183G) expressed on CHO-K1.hCTLA-4 cells (human, UniProt P16410 36-223)
- Sequence (P16410 36-223 Y201G/Y218G limits assumed): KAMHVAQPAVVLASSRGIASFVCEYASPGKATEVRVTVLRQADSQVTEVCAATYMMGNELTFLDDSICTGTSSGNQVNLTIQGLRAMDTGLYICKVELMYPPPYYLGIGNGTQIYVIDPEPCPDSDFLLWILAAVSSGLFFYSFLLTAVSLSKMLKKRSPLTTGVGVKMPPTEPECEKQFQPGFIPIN
- method: CELISA, blockade of biotinylated hCD80/Fc binding to CHO-K1.hCTLA-4 cells
- Procedure: CHO-K1.hCTLA-4 cells were seeded in tissue culture plates and incubated at 37° C., 5% CO₂ and 95% humidity in culture medium. Once the cells were confluent culture medium was removed and cells were incubated for 1 hour with the humanized hCTL4.27 antibody variants (10 μg/ml and dilutions thereof) at 37° C., 5% CO₂ and 95% humidity. […] Reactions were stopped with 0.5 M H₂SO₄ and absorbances were read at 450 and 610 nm. […]
readout.name: pIC50
Entry type: numeric. Quantity: pIC50, the -log10 of concentration in molar units.

Consider the worked cases shown below.
{"binder": "hCTLA4.27A.C4 (antibody, V domains shown, Chimeric: mouse variable domains on human IgG4, kappa; also called hCTLA4.27A chimeric hIgG4) VH: QVQLQQPGAVLVRPGVSVKLSCKASGYSFTTYWMNWVKQRPGQGLEWIGMIHPSDSETSLNQAFKDKATLTIDKSSSTAYMQLSSPTSEDSAVYFCARMGRRNPYYFDYWGQGTTLTVSS VL: DIQMTQSPVSLSVSVGETVTITCRPSENLYTNLAWYQQKQGKSPQLLVYGATNLADGVPSRFSGSGSGTQYSLRINSLQSEDFGTYYCQHLWGTPFTFGSGTKLELK", "pIC50": 8.79}
{"binder": "hCTLA4.27H2L5 (antibody, human IgG4 S228P, kappa, V domains shown, Humanized, human IgG4 (S228P) kappa; H2 read as hCTLA4.27VH2, L5 as hCTLA4.27VL5) VH: EVQLVQSGAVLVKPGASVKVSCKASGYSFTTYWMNWVRQRPGKGLEWIGMIHPSDSETSLNQAFKDKVTITADESTSTAYMQLSSLRSEDTAVYYCARMGRRNPYYFDYWGQGTTVTVSS VL: DIQMTQAPSSLSASVGDRVTITCRPSENLYTNLAWYQQKPGKAPKLLLYGATNLADGVPSRFSGSGSGTDYTLTISSLQAEDFATYYCQHLWGTPFTFGGGTKLEIKR", "pIC50": 8.57}
{"binder": "hCTLA4.27A.C1 (antibody, V domains shown, Chimeric: mouse variable domains on human IgG1, kappa; also called hCTLA4.27A chimeric hIgG1) VH: QVQLQQPGAVLVRPGVSVKLSCKASGYSFTTYWMNWVKQRPGQGLEWIGMIHPSDSETSLNQAFKDKATLTIDKSSSTAYMQLSSPTSEDSAVYFCARMGRRNPYYFDYWGQGTTLTVSS VL: DIQMTQSPVSLSVSVGETVTITCRPSENLYTNLAWYQQKQGKSPQLLVYGATNLADGVPSRFSGSGSGTQYSLRINSLQSEDFGTYYCQHLWGTPFTFGSGTKLELK", "pIC50": 8.81}
{"binder": "hCTLA4.27H4L3 (antibody, human IgG4 S228P, kappa, V domains shown, Humanized, human IgG4 (S228P) kappa; H4 read as hCTLA4.27VH4, L3 as hCTLA4.27VL3) VH: EVQLVQSGAEVKKPGASVKVSCKASGYSFTTYWMNWVRQAPGQGLEWMGMIHPSDSETSLNQAFKDRVTMTRDTSTSTVYMELSSLRSEDTAVYYCARMGRRNPYYFDYWGQGTLVTVSS VL: DIQMTQSPSSLSASVGDTVTITCRPSENLYTNLAWYQQKPGKAPKLLLYGATNLADGVPSRFSGSGSGTDYTLTISSLQSEDFATYYCQHLWGTPFTFGQGTKLEIKR", "pIC50": 8.49}

Let us examine a further case.
Query hCTLA4.27H6L5 (antibody, human IgG4 S228P, kappa, V domains shown, Humanized, human IgG4 (S228P) kappa; H6 read as hCTLA4.27VH6, L5 as hCTLA4.27VL5) VH: EVQLLESGPELVRPGSSVKISCKASGYSFTTYWMNWVKQRPGKGLEWIGMIHPSDSETSLNQAFKDKVKLTAATSASIAYLEFSSLRNEDSAVYYCARMGRRNPYYFDYWGQGTLVTVSS VL: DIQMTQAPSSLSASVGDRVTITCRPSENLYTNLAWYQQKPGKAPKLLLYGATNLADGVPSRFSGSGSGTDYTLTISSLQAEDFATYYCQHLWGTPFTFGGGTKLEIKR yields pIC50 of 8.59
